# System: SK-MEL-5 melanoma
# assay.text: NCI tumour cell line growth inhibition, 48 h
Exercise: state measured TGI for each of the molecules provided.

Request: Give TGI for O=C1NC(=O)/C(=C\c2ccncc2)N1 tested on SK-MEL-5 melanoma.
Result: > 100 µM

Request: Give TGI for CC1=NN(C(=O)CC(=O)Nc2cccc(Cl)c2)C(=O)C1N=Nc1ccc(S(N)(=O)=O)cc1 (configuration not stated) tested on SK-MEL-5 melanoma.
Result: > 100 µM

Request: Give TGI for CC(CC(=O)O)(CC(=O)O)C(=O)O tested on SK-MEL-5 melanoma.
Result: > 100 µM

Request: Give TGI for CC1=CC2=C(C)C3(CC3)[C@@](C)(O)C(=O)C2=C1 tested on SK-MEL-5 melanoma.
Result: 0.294 µM

Request: Give TGI for CCN(CC)c1ccc(C(=C2C=CC(=[N+](CC)CC)C=C2)c2ccc(N(CC)CC)cc2)cc1 tested on SK-MEL-5 melanoma.
Result: 0.237 µM

Request: Give TGI for CCOC(=O)CCC(NC(=O)OCc1ccccc1)C(=O)NNC(=O)OC(C)(C)C (configuration not stated) tested on SK-MEL-5 melanoma.
Result: > 100 µM

Request: Give TGI for Cc1[nH]c(=O)nc(N/N=C/c2ccc(Cl)c(Cl)c2)c1C(=O)Nc1ccc(Cl)c(Cl)c1 tested on SK-MEL-5 melanoma.
Result: 22.8 µM

Request: Give TGI for COc1ccc([Se]c2ccc(OC)cc2OC)c(OC)c1 tested on SK-MEL-5 melanoma.
Result: 93.4 µM

Request: Give TGI for Cn1c(N)c(/C=N/NC(=O)CC#N)c(=O)n(C)c1=O tested on SK-MEL-5 melanoma.
Result: > 100 µM

Request: Give TGI for CC1=NNC(N)=N/C1=C/C(Sc1ccc(Cl)cc1)c1cccs1 (configuration not stated) tested on SK-MEL-5 melanoma.
Result: 25.6 µM

Request: Give TGI for CNc1ccc2nc(-c3ccc(OC(=O)N(C)C)cc3)cn2c1 tested on SK-MEL-5 melanoma.
Result: 57.1 µM

Request: Give TGI for Cc1cccc(NC(=O)CC(=O)N2N=C(N3c4ccccc4Sc4ccccc43)CC2c2ccccc2)c1 (configuration not stated) tested on SK-MEL-5 melanoma.
Result: > 100 µM

Request: Give TGI for CCCCCCCCCCCCCCCCOCC(CC(F)(F)P(=O)(O)O)OC(C)=O (configuration not stated) tested on SK-MEL-5 melanoma.
Result: > 50 µM

Request: Give TGI for O=C1c2cc3c(cc2CC12Cc1cc4c(cc1C2)CCC4)CCC3 tested on SK-MEL-5 melanoma.
Result: > 100 µM

Request: Give TGI for CN(C)CCCn1c2ccccc2c2cnccc21 tested on SK-MEL-5 melanoma.
Result: 42.5 µM

Request: Give TGI for C=C[C@]1(C)CC[C@]2(C)C(CC[C@@]3(C)C2C[C@H](O)[C@H](O)[C@@]3(C)O)C1 (some centres not stated) tested on SK-MEL-5 melanoma.
Result: > 100 µM

Request: Give TGI for C=C(CCOC)CCC1CCCCC(=C)C1=O (configuration not stated) tested on SK-MEL-5 melanoma.
Result: > 100 µM

Request: Give TGI for COc1ccc2c(c1O)[C@@]13C=C(O)C(=O)C=C1[C@@H](C2)N(C)CC3 tested on SK-MEL-5 melanoma.
Result: > 100 µM

Request: Give TGI for COc1ccc(Cn2nc(OCc3ccccn3)c3cc([N+](=O)[O-])ccc32)cc1 tested on SK-MEL-5 melanoma.
Result: > 100 µM

Request: Give TGI for COc1cc(C2SCC(=O)N2NC(=O)c2ccc(NC(C)=O)cc2)cc(OC)c1OC (configuration not stated) tested on SK-MEL-5 melanoma.
Result: > 100 µM

Request: Give TGI for O=C1c2ccccc2-c2cc3ccccc3c(=O)n21 tested on SK-MEL-5 melanoma.
Result: > 100 µM

Request: Give TGI for O=C1c2cc([N+](=O)[O-])ccc2NC2C(O)c3ccccc3N12 (configuration not stated) tested on SK-MEL-5 melanoma.
Result: > 100 µM
